Test target: T1, hFc-tagged human 4-1BB extracellular domain protein (4-1BB-hFc) (human, UniProt Q07011 24-186, limits assumed)
T1 construct: also called immunogen A; 4-1BB^ECD-hFc; not shown: human IgG Fc fragment (hFc) of the pCpC vector
Assay name: ELISA, coated human 4-1BB-hFc; Ab 10 ug/ml
From the text: […]
Kindly supply the reported OD450 nm values for the records listed here.
Supply the numeric figure in OD450 nm, leaving out any unit text.

The binder listed as 52F4G2 (antibody, V domains shown) VH: QVQLQESGPGLVKPSETLSLTCAVSGYSISSGYYWGWIRQPPGKGLEWIGSIFHSGSSYYNPSLKSRVTISVDTSKNQFSLKLRSVTAADTAVYYCARESSGWNCFDYWGQGTLVTVSS VL: DIQMTQSPSTLSASVGDRVTITCRASQTISTWLAWYQQKPGKAPKLLIYKASNLESGVPSRFSGSGSGTEFTLTISSLQPDDFATYYCQQYNSYSITFGQGTRLEIK shows OD450 nm equal to 3.06

The binder listed as 11H10C9 (antibody, V domains shown) VH: QVQLVESGGGVVQPGRSLRLSCAASGFTFSSYAMHWVRQAPGKGLEWVAIIWYDGSNQYYADSVKGRFTISRDNSMNTLYLQMNSLRAEDTAVYYCARVEQWLVSYFDFWGQGTLVTVSS VL: EIVMTQSPATLSVSPGERATLSCRASQSVSSNLAWYQQKPGQVPRLLIYGASTRATGIPARFSGSGSGTEFTLTISSLQSEDFAVYYCQQYNNWPTFGGGTKVEIK shows OD450 nm equal to 3.55

The binder listed as 118F3A2 (antibody, V domains shown) VH: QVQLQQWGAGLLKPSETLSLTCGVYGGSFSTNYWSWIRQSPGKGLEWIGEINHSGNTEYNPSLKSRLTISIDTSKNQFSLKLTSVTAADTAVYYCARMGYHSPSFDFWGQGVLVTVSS VL: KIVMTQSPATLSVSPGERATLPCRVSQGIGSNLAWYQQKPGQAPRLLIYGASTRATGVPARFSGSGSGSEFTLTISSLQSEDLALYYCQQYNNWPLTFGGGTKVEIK shows OD450 nm equal to 2.73

The binder listed as 119B6G5 (antibody, V domains shown) VH: EVQLLESGGGLVQPGGSLRLSCAASGFTFSNYAMSWVRQGPGKGLEWVSTIIGSGDSTYYTDSVKGRFTISRDNSKNTLFLQMNSLRAEDTAVYYCARDKSGWYYFDYWGQGTLVTVSS VL: DIQMTQSPSTLSASVGDRVTITCRASQSISNWLAWYQQKPGKAPKLLIYKASSLESGVPSRFSGSGSGTEFTLTISSLQPDDFATYYCQQYNDYFPITFGQGTRLEIK shows OD450 nm equal to 2.78
